- test-method-notes: Selectivity ratio of Ki for Escherichia coli BPL to Ki for human BPL
Ratio Ki strictly under 2 means rule met; at 2 or over means rule not met.

1. CCCCC[C@@H]1SC[C@@H]2NC(=O)N[C@@H]21 | rule not met
2. C#CCCCC[C@@H]1SC[C@@H]2NC(=O)N[C@@H]21 | rule not met
3. C#CCCCCC[C@@H]1SC[C@@H]2NC(=O)N[C@@H]21 | rule not met
4. CCCCCC[C@@H]1SC[C@@H]2NC(=O)N[C@@H]21 | rule met
5. C#CCCCCCC[C@@H]1SC[C@@H]2NC(=O)N[C@@H]21 | rule met
6. O=C1N[C@H]2[C@H](CS[C@H]2CCCCCO)N1 | rule met

###

Target protein (sequence): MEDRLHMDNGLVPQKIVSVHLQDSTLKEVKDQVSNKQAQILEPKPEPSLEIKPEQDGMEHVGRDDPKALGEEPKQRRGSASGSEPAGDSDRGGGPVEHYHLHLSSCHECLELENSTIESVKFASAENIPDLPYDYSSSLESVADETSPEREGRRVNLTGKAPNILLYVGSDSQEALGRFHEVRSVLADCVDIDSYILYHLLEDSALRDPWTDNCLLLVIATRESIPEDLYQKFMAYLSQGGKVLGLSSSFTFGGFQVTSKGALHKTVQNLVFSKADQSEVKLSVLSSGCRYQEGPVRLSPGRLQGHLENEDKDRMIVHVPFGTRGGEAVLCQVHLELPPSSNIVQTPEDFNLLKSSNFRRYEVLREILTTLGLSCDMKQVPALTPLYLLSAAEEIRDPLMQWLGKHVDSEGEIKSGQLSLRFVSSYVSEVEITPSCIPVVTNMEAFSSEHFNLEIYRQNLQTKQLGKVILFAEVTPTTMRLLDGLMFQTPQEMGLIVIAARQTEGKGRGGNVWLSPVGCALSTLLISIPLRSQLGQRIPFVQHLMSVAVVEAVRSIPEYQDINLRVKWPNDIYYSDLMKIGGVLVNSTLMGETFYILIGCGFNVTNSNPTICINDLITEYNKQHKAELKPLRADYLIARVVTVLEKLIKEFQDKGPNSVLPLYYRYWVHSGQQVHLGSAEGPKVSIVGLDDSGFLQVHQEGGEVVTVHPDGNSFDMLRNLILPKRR
pKi: −log10 of the molar value.
measurement-kind: pKi

1. C#CCCCC[C@@H]1SC[C@@H]2NC(=O)N[C@@H]21 | 6.70
2. CCCCC[C@@H]1SC[C@@H]2NC(=O)N[C@@H]21 | 6.85

###

- test-method-notes: Selectivity ratio of Ki for Escherichia coli BPL to Ki for Staphylococcus aureus BPL
Attribute: Ratio Ki
measurement-kind: Ratio Ki

1. C#CCCCC[C@@H]1SC[C@@H]2NC(=O)N[C@@H]21 | 11.3
2. O=C1N[C@H]2[C@H](CS[C@H]2CCCCCO)N1 | 1.2
3. CCCCCC[C@@H]1SC[C@@H]2NC(=O)N[C@@H]21 | 14
4. C#CCCCCC[C@@H]1SC[C@@H]2NC(=O)N[C@@H]21 | 24.4
5. CCCCC[C@@H]1SC[C@@H]2NC(=O)N[C@@H]21 | 22
6. C#CCCCCCC[C@@H]1SC[C@@H]2NC(=O)N[C@@H]21 | 8.3

###

- test-method-notes: Selectivity ratio of Ki for human BPL to Ki for Staphylococcus aureus BPL
Listing of entries alongside the reported Ratio Ki.
measurement-kind: Ratio Ki

1. C#CCCCC[C@@H]1SC[C@@H]2NC(=O)N[C@@H]21 | 2.5
2. O=C1N[C@H]2[C@H](CS[C@H]2CCCCCO)N1 | 1.1
3. CCCCC[C@@H]1SC[C@@H]2NC(=O)N[C@@H]21 | 2.8
4. CCCCCC[C@@H]1SC[C@@H]2NC(=O)N[C@@H]21 | 12.4
5. C#CCCCCC[C@@H]1SC[C@@H]2NC(=O)N[C@@H]21 | 11.7
6. C#CCCCCCC[C@@H]1SC[C@@H]2NC(=O)N[C@@H]21 | 5
